src = patent US20220281976A1

Biological target: T1, human CD33 (human, UniProt P20138 18-364)
T1 construct: CD33 on human primary dendritic cells, macrophages, monocytes and T cells and on CHO cells expressing recombinant human CD33; also called Siglec-3; hCD33
T1 sequence (P20138 18-364): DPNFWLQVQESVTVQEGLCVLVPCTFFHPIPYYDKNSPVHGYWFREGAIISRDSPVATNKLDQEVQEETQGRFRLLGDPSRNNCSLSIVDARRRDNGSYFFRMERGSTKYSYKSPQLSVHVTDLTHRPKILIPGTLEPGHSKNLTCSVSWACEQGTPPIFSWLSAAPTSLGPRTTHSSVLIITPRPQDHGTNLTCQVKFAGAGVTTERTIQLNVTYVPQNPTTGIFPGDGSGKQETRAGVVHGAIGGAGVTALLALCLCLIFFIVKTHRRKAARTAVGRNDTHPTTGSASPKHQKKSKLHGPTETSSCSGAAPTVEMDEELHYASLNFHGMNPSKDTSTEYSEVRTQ
Assay: flow cytometry, human primary monocytes;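 also: binding of anti-CD33 antibodies at 10 ug/ml to human primary monocytes, 1 h on ice, detected by PE-labelled secondary antibody, flow cytometry readout as mean fluorescence intensity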
Set-up: reference not given here
Readout Kind: Monocyte MFI
Give your answer as a number; write no unit.

[
  {
    "Binder": "C-25 (antibody, V domains shown, human IgG1) VH: EVQLVESGGGLVQPGGSLRLSCAASGFTFSSYWMSWVRQAPGKGLEWVANIKSDGSEKYYVDSVKGRFTISRDNAKNSLYLQMNSLRAEDTAVYYCAREGFRDGINWFDPWGQGTLVTVSS VL: DIQMTQSPSSLSASVGDRVTITCRASQSISRYLNWYQQKPGKAPKLLIYAASSLQSGVPSRFSGSGSGTDFTLTISSLQPEDFATYYCQQQFLTPITFGGGTKVEIK",
    "Readout Kind": "Monocyte MFI",
    "Numeric Readout": 139
  }
]

stdin: Look up and state reported Monocyte MFI for C-13 (antibody, V domains shown, human IgG1) VH: EVQLVESGGGLVQPGGSLRLSCAASGFTFSSYWMSWVRQAPGKGLEWVANIKSDGSEKYYVDSVKGRFTISRDNAKNSLYLQMNSLRAEDTAVYYCARGPSYLASGAFDLWGRGTLVTVSS VL: EIVLTQSPATLSLSPGERATLSCRASQSVSSYLAWYQQKPGQAPRLLIYDASNRATGIPARFSGSGSGTDFTLTISSLEPEDFAVYYCQQAYVVPPRTFGGGTKVEIK
stdout: 181
